FYI, the data here is from patent US20120316071A1.

target: T1, Recombinant Human DLL4 (R&D Systems Cat#1506-D4/CF) (human, UniProt Q9NR61 27-524); experiment: ECL multispot (MSD) binding assay, DLL4 spotted on plate, purified Fab in solution; Fab concentration not given
T1 construct: Bought recombinant protein; also called delta-like protein 4; rHuman DLL4
Kindly state ECL signal for each of the entries shown.

binder	ECL signal
Fab VH1-46_IGHD6-6*01_IGHJ1*01 S102A/S103P/S104F/H111F (APFF) & L6_IGKJ1*01 S30C (Fab, V domains shown, Fab expressed in E. coli: VH joined to CH1 (Plasmid A, His6 and Flag tags), VL joined to kappa CL (Plasmid C); also called APFF S30C) VH: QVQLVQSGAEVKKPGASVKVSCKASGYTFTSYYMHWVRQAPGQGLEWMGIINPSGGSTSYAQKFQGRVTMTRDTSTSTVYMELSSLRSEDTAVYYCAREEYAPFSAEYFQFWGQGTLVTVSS VL: EIVLTQSPATLSLSPGERATLSCRASQSVCSYLAWYQQKPGQAPRLLIYDASNRATGIPARFSGSGSGTDFTLTISSLEPEDFAVYYCQQRSNWPPWTFGQGTKVEIKR	129000
Fab VH1-46_IGHD6-6*01_IGHJ1*01 S102A/S103P/S104F/H111F (APFF) & L6_IGKJ1*01 S28M (Fab, V domains shown, Fab expressed in E. coli: VH joined to CH1 (Plasmid A, His6 and Flag tags), VL joined to kappa CL (Plasmid C); also called APFF S28M) VH: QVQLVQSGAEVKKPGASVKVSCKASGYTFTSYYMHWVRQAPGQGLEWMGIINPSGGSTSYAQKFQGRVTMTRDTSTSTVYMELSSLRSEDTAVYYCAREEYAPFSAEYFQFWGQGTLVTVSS VL: EIVLTQSPATLSLSPGERATLSCRASQMVSSYLAWYQQKPGQAPRLLIYDASNRATGIPARFSGSGSGTDFTLTISSLEPEDFAVYYCQQRSNWPPWTFGQGTKVEIKR	108000
Fab VH1-46_IGHD6-6*01_IGHJ1*01 S102A/S103P/S104F/H111F (APFF) & L6_IGKJ1*01 S28E (Fab, V domains shown, Fab expressed in E. coli: VH joined to CH1 (Plasmid A, His6 and Flag tags), VL joined to kappa CL (Plasmid C); also called APFF S28E) VH: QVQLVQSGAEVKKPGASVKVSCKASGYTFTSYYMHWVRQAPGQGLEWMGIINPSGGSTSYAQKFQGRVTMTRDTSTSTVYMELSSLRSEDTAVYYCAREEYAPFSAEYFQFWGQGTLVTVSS VL: EIVLTQSPATLSLSPGERATLSCRASQEVSSYLAWYQQKPGQAPRLLIYDASNRATGIPARFSGSGSGTDFTLTISSLEPEDFAVYYCQQRSNWPPWTFGQGTKVEIKR	184000

// for each binder below, give its ECL signal
1. Fab VH1-46_IGHD6-6*01_IGHJ1*01 S102A/S103P/S104F/H111F (APFF) & L6_IGKJ1*01 S28L (Fab, V domains shown, Fab expressed in E. coli: VH joined to CH1 (Plasmid A, His6 and Flag tags), VL joined to kappa CL (Plasmid C); also called APFF S28L) VH: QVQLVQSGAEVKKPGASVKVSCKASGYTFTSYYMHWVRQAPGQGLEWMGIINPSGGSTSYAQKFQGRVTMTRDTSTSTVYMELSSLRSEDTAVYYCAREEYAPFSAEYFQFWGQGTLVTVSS VL: EIVLTQSPATLSLSPGERATLSCRASQLVSSYLAWYQQKPGQAPRLLIYDASNRATGIPARFSGSGSGTDFTLTISSLEPEDFAVYYCQQRSNWPPWTFGQGTKVEIKR
2. Fab VH1-46_IGHD6-6*01_IGHJ1*01 S102A/S103P/S104F/H111F (APFF) & L6_IGKJ1*01 S28W (Fab, V domains shown, Fab expressed in E. coli: VH joined to CH1 (Plasmid A, His6 and Flag tags), VL joined to kappa CL (Plasmid C); also called APFF S28W) VH: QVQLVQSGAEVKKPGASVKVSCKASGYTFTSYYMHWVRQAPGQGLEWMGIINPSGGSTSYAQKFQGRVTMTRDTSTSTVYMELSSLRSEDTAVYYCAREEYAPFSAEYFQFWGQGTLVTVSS VL: EIVLTQSPATLSLSPGERATLSCRASQWVSSYLAWYQQKPGQAPRLLIYDASNRATGIPARFSGSGSGTDFTLTISSLEPEDFAVYYCQQRSNWPPWTFGQGTKVEIKR

Completion:
1: 72300; 2: 165000
